Hey, just so you know, these numbers are from ChEMBL document CHEMBL3351648.

SYSTEM_NAME: GABA-A receptor; anion channel
RUN_DESCRIPTION: Displacement of [3H]muscimol from GABAA receptor in SPRD rat brain synaptic membranes by scintillation counting method
Listing: pKi of selected compounds
Entry type: numeric. Quantity: pKi, the -log10 of concentration in molar units.

Examples with their reported pKi follow.
1. CCc1cc(N)ncc1C(=O)O = 5.03
2. CCCCc1cc(N)ncc1C(=O)O = 4.62
3. NCc1cc(=O)[nH]o1 = 8.22
4. O=C(O)C1CCNCC1 = 6.29

Query: What value of pKi has been reported for the following compound? Nc1cc(CC(=O)O)ccn1
Result: 4.14

---

SYSTEM_NAME: GABA A receptor alpha-2/beta-2/gamma-2 (Homo sapiens, UniProt P18507+P47869+P47870)
Sequence (P47870 whole entry): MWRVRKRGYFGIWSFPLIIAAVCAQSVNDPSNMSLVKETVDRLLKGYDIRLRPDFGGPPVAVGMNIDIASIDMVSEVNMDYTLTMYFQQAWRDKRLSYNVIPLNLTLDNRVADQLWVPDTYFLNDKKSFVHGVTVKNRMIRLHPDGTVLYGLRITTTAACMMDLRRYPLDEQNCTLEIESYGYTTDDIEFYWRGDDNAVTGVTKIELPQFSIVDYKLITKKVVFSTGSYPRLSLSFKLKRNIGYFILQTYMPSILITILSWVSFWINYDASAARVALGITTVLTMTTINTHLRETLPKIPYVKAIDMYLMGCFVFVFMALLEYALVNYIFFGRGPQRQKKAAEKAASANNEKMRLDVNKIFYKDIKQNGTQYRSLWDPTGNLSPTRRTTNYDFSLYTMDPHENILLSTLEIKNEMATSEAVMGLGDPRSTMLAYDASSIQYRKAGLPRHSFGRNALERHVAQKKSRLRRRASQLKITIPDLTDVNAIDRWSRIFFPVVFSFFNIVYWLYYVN
Sequence (P18507 whole entry): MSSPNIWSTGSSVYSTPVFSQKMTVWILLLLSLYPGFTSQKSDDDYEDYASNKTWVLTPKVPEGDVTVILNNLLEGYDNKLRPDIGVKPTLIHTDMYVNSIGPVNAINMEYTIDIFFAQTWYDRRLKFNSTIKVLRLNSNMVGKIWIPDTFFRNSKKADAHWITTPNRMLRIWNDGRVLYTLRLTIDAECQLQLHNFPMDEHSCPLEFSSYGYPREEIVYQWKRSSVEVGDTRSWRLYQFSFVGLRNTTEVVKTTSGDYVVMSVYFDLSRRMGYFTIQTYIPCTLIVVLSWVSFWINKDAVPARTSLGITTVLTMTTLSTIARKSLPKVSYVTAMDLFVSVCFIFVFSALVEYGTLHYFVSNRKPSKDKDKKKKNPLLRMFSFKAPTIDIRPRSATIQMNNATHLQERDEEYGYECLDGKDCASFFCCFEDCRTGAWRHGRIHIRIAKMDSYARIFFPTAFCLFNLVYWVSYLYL
Sequence (P47869 whole entry): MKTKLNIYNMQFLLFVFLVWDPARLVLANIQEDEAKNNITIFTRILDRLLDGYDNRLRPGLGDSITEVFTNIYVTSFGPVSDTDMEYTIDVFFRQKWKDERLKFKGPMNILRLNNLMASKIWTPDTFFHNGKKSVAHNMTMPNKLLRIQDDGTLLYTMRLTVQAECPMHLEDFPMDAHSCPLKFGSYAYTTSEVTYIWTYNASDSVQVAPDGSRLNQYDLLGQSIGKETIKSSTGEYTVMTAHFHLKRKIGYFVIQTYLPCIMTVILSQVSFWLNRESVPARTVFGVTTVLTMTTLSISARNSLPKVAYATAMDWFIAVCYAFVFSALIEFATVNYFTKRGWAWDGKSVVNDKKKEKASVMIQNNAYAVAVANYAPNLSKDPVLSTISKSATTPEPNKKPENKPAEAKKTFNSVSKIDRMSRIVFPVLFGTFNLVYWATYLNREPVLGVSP
RUN_DESCRIPTION: Agonist activity at human GABAAalpha2beta2gamma2S receptor expressed in tsA-201cells by FLIPR membrane potential blue assay
ASSAY_ENDPOINT: EC50 (µM)
Respond with the bare value in µM.

Examples with their reported EC50 follow.
1. O=C(O)C1CCNCC1 = 24
2. NC1=NCC(C(=O)O)CN1 (centres undefined) = 9.4
3. NC1=NCC(C(=O)O)CC1 (centres undefined) = 0.82

From here, focus on the item given below.
Query: // fetch GABA A receptor alpha-2/beta-2/gamma-2 (Homo sapiens, UniProt P18507+P47869+P47870) EC50 for O=C(O)C1=CCNCC1
Result: 4.5

---

SYSTEM_NAME: GABA-A receptor; alpha-1/beta-2/gamma-2 (Homo sapiens, UniProt P14867+P18507+P47870)
Sequence (P14867 whole entry): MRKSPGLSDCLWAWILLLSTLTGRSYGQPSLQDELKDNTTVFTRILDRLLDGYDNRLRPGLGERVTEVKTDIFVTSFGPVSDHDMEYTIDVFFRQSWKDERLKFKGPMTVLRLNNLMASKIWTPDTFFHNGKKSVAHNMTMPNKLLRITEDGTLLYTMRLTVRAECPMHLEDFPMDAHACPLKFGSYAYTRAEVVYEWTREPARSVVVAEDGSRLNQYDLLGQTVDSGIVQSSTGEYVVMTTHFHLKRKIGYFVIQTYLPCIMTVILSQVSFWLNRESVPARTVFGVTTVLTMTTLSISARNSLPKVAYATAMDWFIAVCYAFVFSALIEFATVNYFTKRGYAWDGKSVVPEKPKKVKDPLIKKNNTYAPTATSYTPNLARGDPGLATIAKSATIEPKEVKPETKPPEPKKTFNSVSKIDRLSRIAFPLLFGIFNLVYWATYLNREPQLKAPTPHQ
Sequence (P47870 whole entry): as the sequence (P47870 whole entry) above
Sequence (P18507 whole entry): as the sequence (P18507 whole entry) above
RUN_DESCRIPTION: Agonist activity at human GABAAalpha1beta2gamma2S receptor expressed in tsA-201cells by FLIPR membrane potential blue assay
EXPERIMENTAL_CONTEXT: read-out: EC50
pEC50: −log10 of the molar value.
ASSAY_ENDPOINT: pEC50

1. CCCCc1nc(N)ccc1C(=O)O = < 3.00
2. NC1=NCC(C(=O)O)CN1 (stereo not given) = 4.85
3. CCc1cc(N)ncc1C(=O)O = < 3.00
4. O=C(O)C1=CCNCC1 [ISOGUVACINE] = 4.96

Query: What value of pEC50 has been reported for the following compound? Cc1cc(N)ncc1C(=O)O
Result: < 3.00

Query: What value of pEC50 has been reported for the following compound? CCc1nc(N)ccc1C(=O)O
Result: < 3.00

Query: What value of pEC50 has been reported for the following compound? CCCCc1cc(N)ncc1C(=O)O
Result: < 3.00

---

SYSTEM_NAME: Gamma-aminobutyric acid receptor subunit rho-1 (Homo sapiens)
Sequence (P24046 whole entry): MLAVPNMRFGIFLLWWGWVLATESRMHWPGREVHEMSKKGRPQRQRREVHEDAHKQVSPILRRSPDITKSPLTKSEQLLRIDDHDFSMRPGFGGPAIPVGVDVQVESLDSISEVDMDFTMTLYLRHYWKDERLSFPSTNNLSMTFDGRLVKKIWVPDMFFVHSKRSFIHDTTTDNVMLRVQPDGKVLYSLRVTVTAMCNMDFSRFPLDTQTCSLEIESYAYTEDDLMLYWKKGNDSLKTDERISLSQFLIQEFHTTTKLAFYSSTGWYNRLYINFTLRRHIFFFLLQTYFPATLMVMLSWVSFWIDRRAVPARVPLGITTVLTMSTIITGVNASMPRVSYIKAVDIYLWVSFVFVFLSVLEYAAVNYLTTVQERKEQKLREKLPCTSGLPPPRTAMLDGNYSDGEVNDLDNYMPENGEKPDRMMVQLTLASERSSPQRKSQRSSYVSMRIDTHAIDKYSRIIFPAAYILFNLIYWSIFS
RUN_DESCRIPTION: Agonist activity at human GABAA rho1 expressed in tsA-201cells by FLIPR membrane potential blue assay
EXPERIMENTAL_CONTEXT: read-out: EC50
Listing: EC50 of selected compounds

1) CCCCc1cc(N)ncc1C(=O)O = > 1000 µM
2) CCc1cc(N)ncc1C(=O)O = > 1000 µM
3) CCc1nc(N)ccc1C(=O)O = > 1000 µM

Query: What value of EC50 has been reported for the following compound? CCCCc1nc(N)ccc1C(=O)O
Result: > 1000 µM

---

SYSTEM_NAME: GABA-A receptor; alpha-1/beta-2/gamma-2 (Homo sapiens, UniProt P14867+P18507+P47870)
RUN_DESCRIPTION: Agonist activity at human GABAAalpha1beta2gamma2S receptor expressed in tsA-201cells by FLIPR membrane potential blue assay
EXPERIMENTAL_CONTEXT: read-out: EC50
pEC50: −log10 of the molar value.
ASSAY_ENDPOINT: pEC50

Examples with their reported pEC50 follow.
1) NC1=NCC(C(=O)O)CC1 (stereo not drawn) = 5.59
2) Nc1ccc(C(=O)O)cn1 = < 3.52

Query: // fetch GABA-A receptor; alpha-1/beta-2/gamma-2 (Homo sapiens, UniProt P14867+P18507+P47870) pEC50 for CNC1=NCC(C(=O)O)CC1 (stereo not drawn)
Result: < 3.00
